test system: MS2 coat protein; experiment: apparent KD of MS2 coat protein; designed switch direction (-1 OFF switch, 1 ON switch): 1; higher = weaker reporter binding; settings: input ligand: microRNA oligo, concentration not stated
Each entry below carries its reported apparent KD of MS2 coat protein.
Metric: apparent KD of MS2 coat protein (nM)

AUAUGAGCUAUGGAGGAUAUCCAUAACAAGACAUGAGGAUCACCCAUGUAAUCAAAACAAUAAUGGGAGAAGGCCAUAGCUCAAU [SS 2 M47] (Eterna round: R96, puzzle: Same State 2) :: 46.9
CUGAGCAAUCGAGGAUAUCACGUCGAUUAGACGUGAGAAGGCGAUCAUAACAUGAGGAUCACCCAUGUAUUACAUGAAGCUCAG [SSNG1/4-A2] (Eterna round: R96, puzzle: Same State NG 1) :: 12.9
GCUCGAAUCAAAACCAACAUGAGGAUCACCCAUGUAUGUUGGUAGGAUAUCGUUUGUAAAACAAACGAGAAGGGCCAAACGAGC [SameState NG3 #4] (Eterna round: R96, puzzle: Same State NG 3) :: 93.3
GUGGAGGAUUAAGGAUAUUGAAUACAUAUGUUUAACAUGAGGAUCACCCAUGUGGGUUGCGGUAUCGAGAAGGUAAAUUACUGG [salish99_SSNG2_r04_034] (Eterna round: R96, puzzle: Same State NG 2) :: 63.2
CCGGUUAAUGGAGGAUAUGGAGCCUUAUUGGCUCCAGAAGGCUAAACAUGAGGAUCACCCAUGUUACCGGCGGUCAAUAGACCG [Eli NG1ss - 61] (Eterna round: R96, puzzle: Same State NG 1) :: 18
AUUUUUAAUGCAGGAUAUGAUUAACAUGAGGAUCACCCAUGUGGUGUUGUGAGUAAGGAGAGUGAUCAGAAGGGCAUUUCUUUU [JMF's solution 82] (Eterna round: R96, puzzle: Same State NG 2) :: 337
UGGCUCAGACUAGGAUAUAUGCGAUCACAUGAGGAUCACCCAUGUCUCGAGCUUCGGCUCGAGGCAUAGAAGGAGUCUGAGCCA [SSNG2/4-D2] (Eterna round: R96, puzzle: Same State NG 2) :: 34.6
UGGUACAUGGGAGGAUAUCUCGUAGAGACAUGAGGAUCACCCAUGUAGAUGGCCGGUAACCGGGAAGAGAAGGCCCAUGUACCU [JL SSNG1 3.66] (Eterna round: R96, puzzle: Same State NG 2) :: 56.1
GUAGCAUACCGAGGAUAUUCAUAACAUGAGGAUCACCCAUGUAUUAGGCCACAUUAGUGGCCUUGGGAGAAGGCGGAAUGCUAC [Xeonanis - 20 Mod45] (Eterna round: R96, puzzle: Same State NG 2) :: 11.9

====

test system: MS2 coat protein; test: apparent KD of MS2 coat protein; higher = weaker reporter binding; settings: Eterna round: R107; input ligand: arginine 13.2 mM
Classify by measured apparent KD of MS2 coat protein: Fulfilled if it is equal to or exceeds 20 nM, Not fulfilled if it is smaller.

UGACAUUGCUCAGAUACCAGACGUGAGGAUCACCCACGUGCCAACAUGAGGAUCACCCAUGUCCCUUGGCAGCUGAGCAAUGUCU :: Not fulfilled
AGACAUGAGGAUCACCCAUGUAGUACGGAUACCAGAUCCAGAUGCAUCCCUUGGCAGCUGUGGUACAGCGUUACAUCGCUCGUAG [Exclusion - Theophylline A (Freestyle 22)] :: Not fulfilled
AGUGUUAUAACUGAUACCAGACCUUUGCUUAUACAUGAGGAUCACCCAUGUAAAAUGGCUGUCCCUUGGCAGCAGAGAAUACACA [#07 Same State - Theophylline B] :: Fulfilled
GGACUAACCUGAAGGAGCGACGCGCAGAAACUGCAAUUUCCUCCACACGAGGAUCACCCGUGUCAGGUAGGUCGCAGGUUAGUCG [ArgBX 29] :: Not fulfilled
ACGAACGAUAGUGAUACCAGACGUACAUGAGGAUCACCCAUGUUAUACACAUGGUUUAUUGUCCCUUGGCAGCACGUUAAGUUCG [JR_ExcTheophyB_Sub005] :: Fulfilled

====

# apparent KD of K4 kissing-loop reporter annotations
test system: K4 kissing-loop RNA reporter; assay: apparent KD of K4 kissing-loop reporter; higher = weaker reporter binding; conditions: Eterna round: R107; input ligand: tryptophan 2.4 mM
Metric: apparent KD of K4 kissing-loop reporter (nM)

AGACUUCACCGAAGGAGCGACGUGGCCUAGUGAUGUUAGGCACGAGAGAAAUCUCGUGUACGUCAGGUAGGUCGCGGUGAAGUCA [Omei KL Arginine B SS C v7] :: 816
UUGUUUUACUGAAGGAGCGGCAAUUGAUACGUAGAUAUAGUGAUGUUAUAUAAGAUAGAGAGCCAGGUAGGUCGCAGAUGUGUUU [ExArgB.T] :: 149
UGUAUGUGAUGUGAUACCAGUGAAGAGCCAGUGAUGUUGGUAGAACUGGUAUAUAAAUAACACCCUUGGCAGCACAAUCACGUAC [whbob_Ex_Theo_B_sa99] :: 314
UAUUUAGUGACGGCCGCCACUAUUGUGAUUUAUUUGUUUGAGUGAUGUUUUGAUGUUUGAUUUUGUAGGACCGGGUUAUGUGUUA [awscmullin] :: 708
GGUAGCAUGGCGGCCGCCACUUGCACUCGUCUUGCAUAUUGGCCUAUGAUAGUAGUGAUGUUACUAAGGACCGGGCCAUGCUACC :: 255
AGCAUUUUCAGAAGGAGCGUGAAUUAUUCAUAAUUAUAUUAUACGAGUGAUGUUCGUAUUUCACAGGUAGGUCGCUGAUAUAGCA [JR_SSArginiB_Sub002] :: 46.6

====

apparent KD of MS2 coat protein for assorted sequences
test system: MS2 coat protein; assay: apparent KD of MS2 coat protein, switch ON state; designed switch direction (-1 OFF switch, 1 ON switch): -1; higher = weaker reporter binding; details: FMN input: 0 or 200 uM; Eterna round: R93 (includes R88 designs)
Metric: apparent KD of MS2 coat protein (nM)

CCUGAACAUGAGGAUCACCCAUGUGAGGAUAUGAUGCGAAUAAAGAAAGAAGAAAGCAUCAGAAGGCACAUAGG [Mod of Disincluded 3 v.4] :: 28
AACUGACAUGAGGAUCACCCAUGUCAGGAUAUGCUUCUAGGAAAAAAAAAAACUAGAUGCAGAAGGGAUAUGGA [Design 37 :P Sub-opt 13] :: 14.5
AAAAAACAUGAGGAUCACCCAUGUCAGGAUAUCUGGAGAAACGGAAAGAAAAAGAAACGGAGAAGGGACAUAAA [Starryjess mod] :: 29.6

====

# Lookup of reported apparent KD of MS2 coat protein keyed by entry
system: MS2 coat protein; assay: apparent KD of MS2 coat protein; designed switch direction (-1 OFF switch, 1 ON switch): 1; higher = weaker reporter binding; settings: input ligand: microRNA oligo, concentration not stated
Metric: apparent KD of MS2 coat protein (µM)

GUUACAUGAGGAUCACCCAUGUAUGUGUGGGAGUAAGUGUCUUAGGAUAUCUAUUAUAUAAAUUAAGAGAAGGAAGAUUGUUGU [JMF's solution 16] (Eterna round: R96, puzzle: Same State NG 3) :: 0.0879
GGUCGGACUCACAUGAGGAUCACCCAUGUUGCGGAAACGCCACAGGAUAUCUGUCCGAAAAGGUCAGAGAAGGGUGAACCGACC [Fiskers NG3ss - 63] (Eterna round: R96, puzzle: Same State NG 3) :: 0.0358
GCUACCAAAGAAGCCAACAUGAGGAUCACCCAUGUAUGUUGGUAGGAUAUCGUUUGCAAAGCAAACGAGAAGGGCUAAGGUAGC [Mat - Same State NG 3 - JL Mod - D77] (Eterna round: R96, puzzle: Same State NG 3) :: 0.0992
AGGCUCAGACUAGGAUAUGAUCAUGGCGCUUCGGCGCAUACAUGAGGAUCACCCAUGUAAAGUGAUCAGAAGGAGUCUGAGCCA [SSNG2/7-C1] (Eterna round: R96, puzzle: Same State NG 2) :: 0.00908
UAGGGACAUGAGGAUCACCCAUGUGCCUCAUAUGGAGAAACUCAGGAUAUGCUGAGGAUCACCCGGCAGAAGGGAGAUCCGAGG (Eterna round: R96, puzzle: Same State NG 3) :: 0.033

====

tested on: K4 kissing-loop RNA reporter; experiment: apparent KD of K4 kissing-loop reporter; higher = weaker reporter binding; conditions: Eterna round: R107; input ligand: arginine 13.2 mM;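 also: bound reporter read as fluorescence of individual clusters on recovered sequencing chips by microscopy, with normalized cluster intensities fitted with a binding model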
# cutoff 200 nM applies to apparent KD of K4 kissing-loop reporter; >= gives satisfied, < gives not satisfied

UGUCAUUGGUCGGCCGCCACUUCGUAUGAAGUGAUGUUUUGUAGAUUGUGUUGAAAGGUAUGGUGAAGGACCGGGACCGAUGACU [FiskerMod 22 - Jieux - Same State - Tryptophan B] :: satisfied
AAAAUAAAUCAGUGAUGUUGGUAUCUGGAUACCAGCGAUAAUAAUCGCCCUUGGCAGCCAUGGACGUACAAAAUAAGUACGUCCU [MatMod 18 - Jieux - Same State - Theophylline A] :: not satisfied
UCGGCAAAGUCGGCCGCCACUCCGGGCCCUAUAAAUGGGCGCAGUGAUGUUGCGGCUAGGCCUCUGAGGACCGGGACUUUGUAAA [Atordied] :: not satisfied
AUGCCUAUGACGGCCGCCACUGAGAGUCAGUGAUGUUGACUCGAUACAGCUGAUUAGCAGCUAAUCAGGACCGGGUCAUACACAU [Tryp B SS t3] :: not satisfied
AGUGACGUCGCGGCCGCCACUGAAAUGACAGUGAUGUUGUCAAAAGAAAGUGAUGUUAAGAAAUGCAGGACCGGGUGAUAGAAAA [semi-accidental] :: not satisfied
UUUUAAUGCAGUGAUGUUGCUAAUAAAACAGAGGAUAUGCAUGGAAGCAGAAGGCUGAAAUAUUAUACUUUAAUAAAUUAUAUUU [JR_SSFMNA_Sub010] :: not satisfied
UGGAUUAGGACGGCCGCCACUACGCUGGCAUGAGUGAUGUUCUAAGGCUUGUCAAAGAUCCAGAGUAGGACCGGGUCCAAUGACU [theeternabot_exclusion_KL_Trp_B_38] :: satisfied
AGAGUUAAUUAGUCUUUUUUCACAUUAAGUCAGGAUAUCGUAUUUUCGAGAAGGGACACAUGCUAGUGAUGUUAGCUAUUUCUCA [JR_Nu3_ExcFMNA_Sub020] :: not satisfied
UUGCCCGAUGGAGAUACCAGCAGUUGUGCAGUGAUGUUGCACAAGUACUCGCUCCAUUGCUGCCCUUGGCAGCUCCCGGCGAAAA [Reoraren] :: not satisfied
AAACGUUGGUGCGAUACCAGCUUGCGCGGAAAACGCGCUACUGGAGUGAUGUUCCUAAAUAGCCCUUGGCAGCGCACCGACGAAA [MAT - Same State Theophlline B - Mod of Eli - D9] :: not satisfied
